These entries and their values trace back to ChEMBL document CHEMBL3832761.

- System: HepG2
- method-summary: Cytotoxicity data HepG2 CC20 (uM)
- Format: functional
experimental-readout: CC20 (µM)

* O=C(Nc1ccc2c(c1)B(O)OC2)c1ccccc1C(F)(F)F | 0.41
* COc1ccc(C(=N)N)cc1-c1cn(-c2ccc(C(=N)N)cc2)nn1 | 5.47
* CC(C)(C)c1ccc(N[C@@H]2CCCC[C@H]2NC(=O)c2ccco2)cc1 | 35.9
* COc1ccccc1C(C)NCC(=O)Nc1cc(C(F)(F)F)ccc1Cl (stereo unspecified) | 33.7
* COc1ccc(-c2cnc3cnc(-c4cccc(OC(C)C)c4)cn23)cc1 | 24.3
* NS(=O)(=O)c1cccc(-c2ccc3ncc(N4CCOCC4)nc3c2)c1 | 7.61
* c1cc(C2=NCCN2)cc(-c2cc(-c3ccc(C4=NCCN4)cc3)no2)c1 | 4.51
* COc1cc(C2=NCCN2)ccc1-c1cn(-c2cccc(C3=NCCN3)c2)nn1 | 22.9
* Cc1ccccc1C(=O)N1N=C(Nc2ccccc2)SC1(C)C | 8
* CO[C@@H]1CN(c2ccc(C#CC3(O)CN4CCC3CC4)c(Cc3ccccc3)n2)C[C@H]1O (stereo partly specified) | 38.4
* CN1CCC(NCc2cccc(-c3ccc(S(=O)(=O)NCc4ccccc4)cc3)c2)CC1 | 4.15
* O=C1COCc2ccc(Br)cc2N1Cc1ccc(C(F)(F)F)cc1 | 38.4
* Cc1c[nH]c(CCNC(=O)c2cc(-c3ccc(Cl)cc3)cs2)n1 | 6.9
* FC(F)(F)c1cccc(-c2nc3c(NCc4ccncc4)nccc3[nH]2)c1 | 14.6
* CS(=O)(=O)N1CCC(Cn2nc(Cc3cccc4ccccc34)c3c(N)ncnc32)CC1 | 53
* COc1ccc(-c2nnc3ccc(-c4cccc(C(C)C)c4)cn23)cc1OC | 7.5

###

- System: Mycobacterium tuberculosis
- method-summary: AntiMycobacterium tuberculosis activity 2-week GAST/Fe MIC (uM)
- Format: functional
- particulars: 336 h
Parameter class (string): assigned from measured MIC. Ranges: bottom: < 0.8 µM; middle: ≥ 0.8 µM and < 5 µM; top: ≥ 5 µM

* COc1cccc(-c2nc3c(N4CCCC4)cccc3n2CC2CCCN2)n1 (stereo not drawn) | middle
* Cn1ccnc1CNCCS(=O)(=O)c1cccc(Nc2ccc(-c3cccc(F)c3)cn2)c1 | top
* O=C(NC1=NCCS1)c1sc2cc(F)ccc2c1Cl | middle
* C[C@]1(COc2ccc(N3CCC(Oc4ccc(OC(F)(F)F)cc4)CC3)cc2)Cn2cc([N+](=O)[O-])nc2O1 | bottom
* O=C(NC1CCCCC1)N1CCN(Cc2ccc3c(c2)OCO3)CC1 | middle
* Cc1cccc(-c2nc(Nc3ccncn3)c3sccc3n2)n1 | top
* CCc1ccc(S(=O)(=O)Nc2cc(CN3CCN(CCC(C)C)CC3)ccc2C)cc1 | top
* Brc1c(-c2ccc3c(c2)OCO3)nc2ncccn12 | bottom
* Cc1cc(C)c2cc(C(=O)NC3CCCCCCC3)[nH]c2c1 | bottom
* CS(=O)(=O)Cc1nc2ccccc2oc1=O | middle
* COc1ccc(OC(C)C(=O)Nc2ccc(Cl)cc2C)cc1 (stereo not drawn) | middle
* Brc1cncc(-c2cc(NCCCn3ccnc3)nc(-c3ccccc3)n2)c1 | top
* O=C(NCc1ccco1)N1CCN(Cc2ccc(Cl)s2)CC1 | middle
* CCC(Sc1nc2ccccc2o1)C(=O)Nc1nnc(C)s1 (stereo not drawn) | top
* Cc1nnc(NCc2cccc(Cl)c2)c2ccccc12 | bottom
* COc1cc(Br)cc2cc(C(=O)Nc3cccc(C(F)(F)F)c3)c(=O)oc12 | middle
* c1coc(CNc2nc(N3CCCCC3)nc3ccccc23)c1 | top
* Cc1cccc(Cn2ccc(NC(=O)c3ccc4c(c3)OCO4)n2)c1 | bottom
* NC(=O)c1cc(-c2ccsc2)ccc1OCCOc1ccccc1 | bottom
* O=C(NCc1cc(Cl)cc(Cl)c1)c1c(C(F)(F)F)nc2ccccn12 | bottom
* COc1ccc(Nc2ccccc2NC(=O)c2ccc(O)nc2)cc1 | bottom

###

Below, each entry is listed alongside its reported CC50.
- Test system: A549
- method-summary: A549 CC50 (uM) Cytotoxicity
- Format: functional
- particulars: Homo sapiens
experimental-readout: CC50

* OC[C@H]1O[C@@H](n2c3ccc(Cl)cc3c3c(-c4cc5ccccc5o4)ncnc32)C(O)[C@H]1O (stereo not given in full) | > 50 µM
* O=C1[C@@H](Oc2ccccc2)[C@@H](c2ccc(Cl)cc2)N1CCn1cnc2c(NCc3ccccc3)ncnc21 | 40 µM
* CC(C)(C)C(=O)N(CCCCCCN1C[C@H](O)[C@@H](O)[C@H](O)[C@H]1CO)C1CCCCCC1 | > 50 µM
* COC(=O)c1ccc(F)cc1NS(=O)(=O)c1cccc(-c2cnn(Cc3ccccc3)c2)c1 | > 50 µM
* CC(C)(C)OC(=O)N1CCN(c2nccc(-c3ccc(-c4ccc(Cl)cc4)s3)n2)CC1 | > 50 µM

###

- Tested on: Mycobacterium tuberculosis
- method-summary: AntiMycobacterium tuberculosis activity 2-week Alamar Blue 7H9/cholesterol/BSA/Tx MIC (uM)
- Assay type: functional
- particulars: 336 h
The label is Y for MIC below 6 µM and N for MIC equal to or exceeding 6 µM.

• Nc1c2c(nc3sc4c(c13)CCCC4)CCCC2 = N
• Cc1nn(Cc2ccccc2)c(Cl)c1C(=O)NC1CCCCCC1 = Y
• O=C(C1CCN(c2nnc(-n3cccc3)s2)CC1)N1CCC(Cc2ccccc2)CC1 = Y
• O=C(Nc1ccc(C(F)(F)F)c(C(F)(F)F)c1)c1cc(Cl)ccc1O = Y
• O=C(NCc1cc(Cl)cc(Cl)c1)c1c(C(F)(F)F)nc2ccccn12 = Y
• c1ccc(-c2nc(NC3CCCCC3)cc(C3CC3)n2)nc1 = N
• N#Cc1nc(-c2ccccc2)oc1S(=O)(=O)c1ccc(Cl)cc1 = N
• FC(F)(F)c1nnc2ccc(Cl)nn12 = N
• Brc1cncc(-c2cc(NCCCn3ccnc3)nc(-c3ccccc3)n2)c1 = N
• O=C(COc1cccc(F)c1)Nc1nc(-c2ccccn2)cs1 = N
• Cc1nc2ccccn2c1C(=O)NCc1ccc(Cl)cc1 = Y
• CCCn1nnc(NC(=O)COc2ccc(C3CCCCC3)cc2)n1 = N
• CC(C)n1ncc2c(C(=O)NCC(c3cccs3)N3CCOCC3)cc(-c3ccccc3)nc21 (stereo not drawn) = Y
• Cc1cccc(Cn2ccc(NC(=O)c3ccc4c(c3)OCO4)n2)c1 = N
• CS(=O)(=O)Cc1nc2ccccc2oc1=O = N
• COc1ccc2nc(C)cc(OCC(=O)Nc3ccccc3OC)c2c1 = Y
• c1ccc(C[C@@H]2CN(c3nccc(Oc4ccc(-n5ccnc5)cc4)n3)CCN2)cc1 = N
• COc1ccc(Nc2ccccc2NC(=O)c2ccc(O)nc2)cc1 = Y
• Cc1ccc2oc(-c3cc(NC(=O)Cc4ccccc4)ccc3Cl)nc2c1 = N
• COC(=O)c1c(NC(=O)c2c(F)c(F)c(F)c(F)c2F)sc2c1CCCCC2 = Y
• CC(C)(C)c1cnc(NC(=O)c2ccccc2O)s1 = N
• CC1COC2(CCN(c3nc(=O)c4cc(C(F)(F)F)cc([N+](=O)[O-])c4s3)CC2)O1 (stereo not drawn) = Y
• Cc1cccc(-c2nc(Nc3ccncn3)c3sccc3n2)n1 = N

###

- method-summary: HL60 CC50 (uM) Cytotoxicity
- Format: functional
- particulars: HL-60
experimental-readout: CC50

* CC(C)(C)c1cc(C(=O)Nc2cccnc2)cc(C(=O)Nc2cccnc2)c1 | > 50 µM
* COc1ccc(-c2nn(C(C)C)c3ncnc(N)c23)cc1OC | 25.1 µM
* CC(C)(C)OC(=O)N1CCC(Cn2nc(-c3cnc4ccccc4c3)c3c(N)ncnc32)CC1 | > 50 µM

###

Below, each entry is listed alongside its reported MIC.
- System: Mycobacterium tuberculosis
- method-summary: AntiMycobacterium tuberculosis activity 2-week Alamar Blue 7H9/ADC/Tw MIC (uM)
- Type: functional
- particulars: 336 h
experimental-readout: MIC

* NCC(c1cccs1)S(=O)(=O)c1ccccc1 (stereo unspecified) | 25 µM
* CC(Oc1ccccc1)C(=O)Nc1nc(-c2ccccn2)cs1 (stereo unspecified) | 12.5 µM
* N#Cc1nc(-c2ccccc2F)oc1NCCc1ccccc1 | 37 µM
* CCc1nc2ccc(Cl)cn2c1C(=O)NCc1ccc(N2CCC(c3ccc(OC(F)(F)F)cc3)CC2)cc1 [TELACEBEC] | 0.02 µM
* CC(C)(C)c1cnc(NC(=O)c2ccccc2O)s1 | > 50 µM
* Cc1nnc(NCc2cccc(Cl)c2)c2ccccc12 | 1.56 µM
* Cc1cc(Cl)ccc1NC(=O)CCc1ccc(S(=O)(=O)NCC(C)C)cc1 | 6.25 µM
* Nc1cccnc1Nc1ccc(Cl)cc1 | 37 µM
* Cc1ccc(NC(=O)CC2COc3ccccc3O2)cc1Cl (stereo unspecified) | 50 µM
* COc1ccc(-c2nc(-c3cccc(NC(=O)Cc4ccc(F)cc4)c3)no2)cc1OC | 0.39 µM
* c1ccc(C[C@@H]2CN(c3nccc(Oc4ccc(-n5ccnc5)cc4)n3)CCN2)cc1 | 19 µM
